- Assay target: T1, CD3 epsilon homodimer protein (UniProt P07766 23-126)
- T1 construct: also called CD3 (CD3 epsilon)
- T1 sequence (P07766 23-126): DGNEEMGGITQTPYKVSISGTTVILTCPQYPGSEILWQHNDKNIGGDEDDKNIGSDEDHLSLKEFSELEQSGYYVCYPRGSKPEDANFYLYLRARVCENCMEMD
- Test summary: SPR Biacore T200, CD3e homodimer on chip, vs unaltered GLS3000 antibody
Record form. Attribute: ratio of amounts bound (Z=Y/X). Fill in for each entry.
Answers are plain numbers.

GLS3000 Q93P (antibody, name in Kabat numbering, V domains shown, one-arm IgG as m2) VH: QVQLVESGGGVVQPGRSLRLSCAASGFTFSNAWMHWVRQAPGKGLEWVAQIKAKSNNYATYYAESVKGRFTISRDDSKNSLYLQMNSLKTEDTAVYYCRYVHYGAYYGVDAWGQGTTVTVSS VL: DIVMTQSPLSLPVTPGEPASISCRSSQSLVHSNRNTYLHWYQQKPGQAPRLLIYKVSNRFSGVPDRFSGSGSGTDFTLKISRVEAEDVGVYYCGQGTPVPYTFGQGTKLEIK: 0.25

Parameter requested: ratio of amounts bound (Z=Y/X). Apply to each item below.
1. GLS3000 N30E (antibody, name in Kabat numbering, V domains shown, one-arm IgG as m2) VH: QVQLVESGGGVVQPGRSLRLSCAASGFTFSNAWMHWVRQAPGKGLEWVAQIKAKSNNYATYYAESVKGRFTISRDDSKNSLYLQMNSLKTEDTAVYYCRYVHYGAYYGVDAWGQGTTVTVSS VL: DIVMTQSPLSLPVTPGEPASISCRSSQSLVHSNRETYLHWYQQKPGQAPRLLIYKVSNRFSGVPDRFSGSGSGTDFTLKISRVEAEDVGVYYCGQGTQVPYTFGQGTKLEIK
2. GLS3000 P95S (antibody, name in Kabat numbering, V domains shown, one-arm IgG as m2) VH: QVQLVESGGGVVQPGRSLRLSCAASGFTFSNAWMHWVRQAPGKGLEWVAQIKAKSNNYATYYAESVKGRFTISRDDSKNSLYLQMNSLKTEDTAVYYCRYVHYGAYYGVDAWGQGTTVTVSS VL: DIVMTQSPLSLPVTPGEPASISCRSSQSLVHSNRNTYLHWYQQKPGQAPRLLIYKVSNRFSGVPDRFSGSGSGTDFTLKISRVEAEDVGVYYCGQGTQVSYTFGQGTKLEIK
3. GLS3000 S27aE (antibody, name in Kabat numbering, V domains shown, one-arm IgG as m2) VH: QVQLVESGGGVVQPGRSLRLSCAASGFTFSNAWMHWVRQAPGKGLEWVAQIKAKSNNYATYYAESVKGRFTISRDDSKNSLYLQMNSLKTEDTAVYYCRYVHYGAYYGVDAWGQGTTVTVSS VL: DIVMTQSPLSLPVTPGEPASISCRSSQELVHSNRNTYLHWYQQKPGQAPRLLIYKVSNRFSGVPDRFSGSGSGTDFTLKISRVEAEDVGVYYCGQGTQVPYTFGQGTKLEIK
4. GLS3000 H34T (antibody, name in Kabat numbering, V domains shown, one-arm IgG as m2) VH: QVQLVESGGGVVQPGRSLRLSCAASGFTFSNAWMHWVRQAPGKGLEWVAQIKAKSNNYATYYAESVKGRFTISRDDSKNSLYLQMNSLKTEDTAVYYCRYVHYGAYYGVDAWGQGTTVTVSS VL: DIVMTQSPLSLPVTPGEPASISCRSSQSLVHSNRNTYLTWYQQKPGQAPRLLIYKVSNRFSGVPDRFSGSGSGTDFTLKISRVEAEDVGVYYCGQGTQVPYTFGQGTKLEIK

Completion:
1. 0.44
2. 0.43
3. 0.81
4. 0.89
